assay.info: Characterization of the CyNAMLA library (absorbance maximum wavelengths)
Type: physicochemical
details: absorbance maximum wavelength of CyNAMLA library compounds
Reported λabs (max) values follow for various compounds
Numeric only. Scale: nm

Tell me the measured λabs (max) of CCCN1/C(=C/C=C2\CCCC(/C=C/C3=[N+](CCCNC(=O)CCCCC4CCSS4)c4ccccc4C3(C)C)=C2N(Cc2ccccn2)C(C)=O)C(C)(C)c2ccccc21.O=C([O-])C(F)(F)F (stereo not drawn) [CyNAMLA-401] , please. 804

Consider the compound CCCN1/C(=C/C=C2\CCCC(/C=C/C3=[N+](CCCNC(=O)CCCCC4CCSS4)c4ccccc4C3(C)C)=C2N(Cc2ccccc2OCC)C(C)=O)C(C)(C)c2ccccc21.O=C([O-])C(F)(F)F (stereo not drawn) [CyNAMLA-103] and give its measured λabs (max). 806

Report λabs (max) for CCCN1/C(=C/C=C2\CCCC(/C=C/C3=[N+](CCCNC(=O)CCCCC4CCSS4)c4ccccc4C3(C)C)=C2N(Cc2cc(OC)c(OC)c(OC)c2)C(C)=O)C(C)(C)c2ccccc21.O=C([O-])C(F)(F)F (stereo not drawn) [CyNAMLA-356] please. 806

###

assay.info: Primary screening of photostability of the CyNA library (time-course fluorescence, 8 h)
Type: physicochemical
Set-up: unit: %
details: 10 μM in HEPES 100 mM pH 7.4, 2% DMSO
Measured F/Fo, fluorescent intensity at 8 hours vs 0 hours accompanies every entry in the list below.
Respond with the number and no other words.

CCCN1/C(=C/C=C2\CCCC(/C=C/C3=[N+](CCC)c4ccccc4C3(C)C)=C2N(Cc2ccc(OC)c(OC)c2)C(C)=O)C(C)(C)c2ccccc21
67
CCCCCCCCCCCN(C(C)=O)C1=C(/C=C/C2=[N+](CCC)c3ccccc3C2(C)C)CCC/C1=C\C=C1\N(CCC)c2ccccc2C1(C)C
100

Can you look up the measured F/Fo, fluorescent intensity at 8 hours vs 0 hours of CCCN1/C(=C/C=C2\CCCC(/C=C/C3=[N+](CCC)c4ccccc4C3(C)C)=C2N(C(C)=O)C2CCN(Cc3ccccc3)CC2)C(C)(C)c2ccccc21 for me? 50

What value of F/Fo, fluorescent intensity at 8 hours vs 0 hours has been recorded for this entry: CCCN1/C(=C/C=C2\CCCC(/C=C/C3=[N+](CCC)c4ccccc4C3(C)C)=C2N(Cc2cccc(Br)c2)C(C)=O)C(C)(C)c2ccccc21 100

Could you share which F/Fo, fluorescent intensity at 8 hours vs 0 hours value was measured for CCCN1/C(=C/C=C2\CCCC(/C=C/C3=[N+](CCC)c4ccccc4C3(C)C)=C2N(Cc2ccc(OC)cc2OC)C(C)=O)C(C)(C)c2ccccc21 [CyNA-358] ? 100

# lookup: F/Fo, fluorescent intensity at 8 hours vs 0 hours of CCCN1/C(=C/C=C2\CCCC(/C=C/C3=[N+](CCC)c4ccccc4C3(C)C)=C2N(Cc2cc(OC)cc(OC)c2)C(C)=O)C(C)(C)c2ccccc21 81

###

assay.info: Absorbance and fluorescence maximum wavelengths and quantum yields of the CyNA library
Format: physicochemical
details: CyNA library
Each item that follows carries a reported λem, fluorescence maximum wavelength.
Answer format: numeric, nm implied, no suffix.

As a guide, the following entries are already answered.
CCCN1/C(=C/C=C2\CCCC(/C=C/C3=[N+](CCC)c4ccccc4C3(C)C)=C2N(CCCOC)C(C)=O)C(C)(C)c2ccccc21.[I-]
821
CCCN1/C(=C/C=C2\CCCC(/C=C/C3=[N+](CCC)c4ccccc4C3(C)C)=C2N(CCC(C)(C)C)C(C)=O)C(C)(C)c2ccccc21
821
CCCN1/C(=C/C=C2\CCCC(/C=C/C3=[N+](CCC)c4ccccc4C3(C)C)=C2N(Cc2ccc(C)cc2)C(C)=O)C(C)(C)c2ccccc21
820
CCCN1/C(=C/C=C2\CCCC(/C=C/C3=[N+](CCC)c4ccccc4C3(C)C)=C2N(Cc2cccc(Br)c2)C(C)=O)C(C)(C)c2ccccc21
822
CCCN1/C(=C/C=C2\CCCC(/C=C/C3=[N+](CCC)c4ccccc4C3(C)C)=C2N(C(C)=O)C2CCCC2)C(C)(C)c2ccccc21
821
CCCN1/C(=C/C=C2\CCCC(/C=C/C3=[N+](CCC)c4ccccc4C3(C)C)=C2N(CCc2ccc(O)cc2)C(C)=O)C(C)(C)c2ccccc21
822

Record request: λem, fluorescence maximum wavelength value, item CCCN1/C(=C/C=C2\CCCC(/C=C/C3=[N+](CCC)c4ccccc4C3(C)C)=C2N(Cc2ccccc2Cl)C(C)=O)C(C)(C)c2ccccc21 821

I am curious: what λem, fluorescence maximum wavelength value has been reported for CCCN1/C(=C/C=C2\CCCC(/C=C/C3=[N+](CCC)c4ccccc4C3(C)C)=C2N(Cc2cccc(OC)c2OC)C(C)=O)C(C)(C)c2ccccc21 ? 820

Looking for the measured λem, fluorescence maximum wavelength of CCCN1/C(=C/C=C2\CCCC(/C=C/C3=[N+](CCC)c4ccccc4C3(C)C)=C2N(CCc2cccc(F)c2)C(C)=O)C(C)(C)c2ccccc21 , can you help? 820

So what does the record say about λem, fluorescence maximum wavelength for CCCN1/C(=C/C=C2\CCCC(/C=C/C3=[N+](CCC)c4ccccc4C3(C)C)=C2N(C(C)=O)C(C)CCc2ccccc2)C(C)(C)c2ccccc21 (stereo not drawn) ? 817

What value of λem, fluorescence maximum wavelength has been reported for the following molecule? CCCN1/C(=C/C=C2\CCCC(/C=C/C3=[N+](CCC)c4ccccc4C3(C)C)=C2N(Cc2ccc(Cl)c(Cl)c2)C(C)=O)C(C)(C)c2ccccc21 821

Entry under review: CCCCCCCCCCCN(C(C)=O)C1=C(/C=C/C2=[N+](CCC)c3ccccc3C2(C)C)CCC/C1=C\C=C1\N(CCC)c2ccccc2C1(C)C . Reported λem, fluorescence maximum wavelength? 820
